Measured melting point by item

Example entries and their recorded answers appear below.
[[record]]
compound = "O=C1COCCCOC(=O)COCCCO1"
value_reported = "135 to 136 °C"

[[record]]
compound = "CCC12CCC3C4CCC(=O)C=C4C(Cl)CC3C1C(OC(C)=O)CC2=O (centres undefined)"
value_reported = "115 °C"

[[record]]
compound = "Cc1nc2c(s1)-c1nc(Nc3ccccc3)ncc1CC2"
value_reported = "223 to 224 °C"

[[record]]
compound = "COC(=O)CCC(=O)c1cccc(O)c1"
value_reported = "102 to 103 °C"

[[record]]
compound = "CC(=O)N1CC(=O)NC(=O)N1Cc1ccc(Cl)cc1"
value_reported = "97 °C"

[[record]]
compound = "CC1(N2Cc3cc(CNC(=O)c4ccc(Cl)c(Cl)c4)ccc3C2=O)CCC(=O)NC1=O (centres undefined)"
value_reported = "220 to 222 °C"

[[record]]
compound = "CCCCCCCCOc1ccc(-c2ncc(Br)cn2)cc1"
value_reported = "95 °C"

[[record]]
compound = "CN(C)Cc1cc(C(=O)C2CCCCC2)cc(C(C)(C)C)c1O"
value_reported = "149 to 150 °C"

[[record]]
compound = "CCCCc1nc2ccccc2n1-c1ccc(O)cc1"
value_reported = "192 to 194 °C"

[[record]]
compound = "COC(=O)c1ccc(O)c(C(=O)CC(=O)c2cc(C)ccc2OC(C)C)c1"
value_reported = "85 to 86 °C"


Qu. Would you kindly share the measured melting point for C=C(Cc1ccc(-c2ccccc2)cc1)CN1CCC(C)CC1 ?
Ans. 53 °C

* * *

Measured melting point by item

Qu. Would you kindly share the measured melting point for COc1ccc(-c2sc3cnccc3c2OC(C)=O)cc1 ?
Ans. 141 to 142 °C

* * *

Measured melting point by item

[[record]]
compound = "CCOC(=O)c1ncc2[nH]c3ccc(C(C)OC)cc3c2c1C (configuration not stated)"
value_reported = "96 to 97 °C"

[[record]]
compound = "c1ccc(CN2CCc3c(sc4nc5ccccc5n34)C2)cc1"
value_reported = "124 to 129 °C"

[[record]]
compound = "Clc1nnnc(-c2cccc3ccccc23)c1Cl"
value_reported = "165 to 170 °C"


Qu. Would you kindly share the measured melting point for O=C1NC(=O)N2c3ccccc3[C@H]3CCN4CCC[C@H]1[C@H]4[C@H]32 (racemic) ?
Ans. 235 °C

Qu. Would you kindly share the measured melting point for c1ccc(-c2cnc(NC3=NCC4(CN5CCC4CC5)O3)s2)cc1 (configuration not stated) ?
Ans. 187 to 189 °C

Qu. Would you kindly share the measured melting point for c1ccc(-c2ccc(N(c3ccccc3)c3ccccc3)cc2)cc1 ?
Ans. 117 to 118 °C

* * *

Readout label: melting point

Example entries and their recorded answers appear below.
[[record]]
compound = "Cc1cccc(C(=O)N(C)C)c1N"
readout_label = "melting point"
value_reported = "95 to 96 °C"

[[record]]
compound = "CCOC(=O)Nc1cccc(C(=O)CBr)c1"
readout_label = "melting point"
value_reported = "108 to 110 °C"

[[record]]
compound = "NNCc1ccccc1S(=O)(=O)O"
readout_label = "melting point"
value_reported = "257 to 262 °C"


Qu. Would you kindly share the measured melting point for O=C1CC(c2cccc(-n3ccnc3)c2)=Nc2ccc(-c3cccc(F)c3)cc2N1 ?
Ans. 200 to 201 °C

Qu. Would you kindly share the measured melting point for CC(=O)OC1CSC(Oc2cnccc2C)C(OC(C)=O)C1OC(C)=O (stereo unspecified) ?
Ans. 150 °C

Qu. Would you kindly share the measured melting point for O=C1Nc2ccccc2Sc2ccccc21 ?
Ans. 258 to 259 °C

Qu. Would you kindly share the measured melting point for CN(C)c1ccc(OCC(=O)N[C@@H](CC(N)=O)C(=O)N[C@@H](Cc2ccccc2)[C@H](O)C(=O)N2CCC[C@H]2C(=O)NC(C)(C)C)cc1 ?
Ans. 102 to 104 °C

Qu. Would you kindly share the measured melting point for O=C(c1ccc(F)cc1)c1cccc(C#Cc2cccc(C(=O)c3ccc(F)cc3)c2)c1 ?
Ans. 205 to 206 °C

Qu. Would you kindly share the measured melting point for CC(=O)Nc1ccc2c(c1)C(c1cccn1-c1cc(Cl)cc(Cl)c1)C(=O)N2 (stereo unspecified) ?
Ans. 267 °C

Qu. Would you kindly share the measured melting point for CCCCCc1c(C(C)C)nc(C(C)C)c(C(C)O)c1-c1ccc(F)cc1 (stereo unspecified) ?
Ans. 83 °C

Qu. Would you kindly share the measured melting point for CN(C)CC(=O)N1CCN(Cc2ccc3c(c2)Cc2c(-c4cccs4)n[nH]c2-3)CC1 ?
Ans. 193 to 197 °C

* * *

Measured melting point by item

Qu. Would you kindly share the measured melting point for C[C@H](O)Cn1ccc2cc(F)c(Cl)cc21 ?
Ans. 99 to 101 °C

Qu. Would you kindly share the measured melting point for O=C1CCC(C(=O)N2CCN(C(=O)CN3CCOCC3)CC2)N1 (stereo unspecified) ?
Ans. 204 to 205 °C

Qu. Would you kindly share the measured melting point for CCOCc1cc2cc(Br)ccc2oc1=Nc1ccc(C)cc1 ?
Ans. 116 to 117 °C

Qu. Would you kindly share the measured melting point for O=C(Nc1ccc(F)cc1)N1CC2C(C1)C2Nc1ncc2cc(-c3ccccc3Cl)c(=O)n(-c3ccc(F)cc3)c2n1 (stereo unspecified) ?
Ans. 300 to 302 °C

Qu. Would you kindly share the measured melting point for CC(=O)Oc1ccccc1N1CCN(CCCNC(=O)c2cccc3c(=O)c(C)c(-c4ccccc4)oc23)CC1 ?
Ans. 120 to 123 °C

Qu. Would you kindly share the measured melting point for c1ccc2cc(OCCNC3CCCCC3)ccc2c1 ?
Ans. 89 °C

Qu. Would you kindly share the measured melting point for O=C1CSC(=S)N1c1ccccn1 ?
Ans. 98 °C

Qu. Would you kindly share the measured melting point for S=CN1CCC(C(c2ccccc2)c2ccccc2)CC1 ?
Ans. 152 to 154 °C

Qu. Would you kindly share the measured melting point for Cc1cc(-n2nc(C(F)(F)F)cc2-c2ccc(-c3ccco3)cc2)ccc1S(N)(=O)=O ?
Ans. 137 °C

Qu. Would you kindly share the measured melting point for COC(=O)C(=CNC1CC1)C(=O)C=Cc1ccc(OC)cc1 ?
Ans. 125 to 127 °C

Qu. Would you kindly share the measured melting point for CC(C)OC(=O)CC1SCN(c2ccc(Cl)c(Cl)c2)C1=O (stereo unspecified) ?
Ans. 54 to 56 °C

Qu. Would you kindly share the measured melting point for Cc1nc2c3c(ccc2n1C1CC1)C(=O)[C@H](O)[C@@H](c1ccccc1)O3 ?
Ans. 178 °C

* * *

Readout label: melting point

Example entries and their recorded answers appear below.
[[record]]
compound = "CCn1cc(-c2ccc3c(c2)c(C2CCN(CCN4CCNC4=O)CC2)cn3-c2ccc(F)cc2)nn1"
value_reported = "132 to 134 °C"

[[record]]
compound = "NCCCCN1C(=O)NC(c2ccccc2)(c2ccccc2)C1=O"
value_reported = "137 to 138 °C"

[[record]]
compound = "O=C(NC1CCc2cc3c(cc2C1)OCC3)C(F)(F)F (stereo unspecified)"
value_reported = "131 °C"


Qu. Would you kindly share the measured melting point for Cc1oc2c(OC(C)C#N)cccc2c1C (stereo unspecified) ?
Ans. 53 to 55 °C

Qu. Would you kindly share the measured melting point for Cc1ccc(S(=O)(=S)OCc2ccccc2)cc1 (stereo unspecified) ?
Ans. 52 to 56.5 °C

Qu. Would you kindly share the measured melting point for Cc1ccc(-c2ccc3c(c2)C=C(C(=O)Nc2ccc(CN(C)C4CCOCC4)cc2)CCO3)cc1 ?
Ans. 162 to 163 °C

* * *

Readout label: melting point

[[record]]
compound_string = "COC(=O)c1nn(Cc2ccccc2)c2c1CCc1cc(OCc3cncnc3)ccc1-2"
readout_label = "melting point"
value_reported = "202 to 203 °C"

[[record]]
compound_string = "Cc1ccccc1-c1cnc2c(C(F)(F)F)cccc2c1-c1cccc(NC(=O)Nc2ccccc2F)c1"
readout_label = "melting point"
value_reported = "218 to 220 °C"


Below: the item to evaluate.
Qu. Would you kindly share the measured melting point for CON=C1CN(c2c(F)c(N)c3c(=O)c(C(=O)O)cn(C4CC4)c3c2F)CC12CN(C)C2 ?
Ans. 220 to 222 °C

* * *

Readout label: melting point

[[record]]
compound_string = "Nc1cc(F)ccc1C(=O)CCCN1CCN(c2cc3ccccc3cn2)CC1"
value_reported = "124 to 128 °C"

[[record]]
compound_string = "CCOc1nc2c(cnn2CC)nc1C(=O)Cl"
value_reported = "86 to 87 °C"


Qu. Would you kindly share the measured melting point for CCOC(=O)C(=O)c1csc(NC(=S)Nc2ccccc2F)n1 ?
Ans. 192 to 193 °C

* * *

Readout label: melting point

Example entries and their recorded answers appear below.
[[record]]
molecule = "CC(C)(C)O[C@@H]1C[C@@H](COCc2ccccc2)N(S(=O)(=O)c2ccc3ccccc3c2)C1"
value_reported = "101 to 103 °C"

[[record]]
molecule = "COC(=O)CCC(=O)c1cc2c(=O)c3ccccc3ccc2s1"
value_reported = "144 to 145 °C"

[[record]]
molecule = "CCc1cc(C(C)=O)c(O)cc1OCc1cccc(C(=O)O)c1"
value_reported = "161 to 164 °C"


Qu. Would you kindly share the measured melting point for CC1Sc2c(C(=O)O)c(=O)c3cc(F)c(N4CCC(N)C4)c(Cl)c3n21 (stereo not given) ?
Ans. > 300 °C

Qu. Would you kindly share the measured melting point for COC(=O)C1=Cc2cc(-c3ccc4c(c3)OCO4)ccc2S(=O)(=O)CC1 ?
Ans. 185 to 187 °C

Qu. Would you kindly share the measured melting point for Cc1c(C(=O)O)ccc(O)c1O ?
Ans. 200 to 201 °C

Qu. Would you kindly share the measured melting point for CN(c1ncnc2c1ncn2C1OC(CO)C(O)C1O)n1cccc1 (stereo not given) ?
Ans. 195 to 197 °C

Qu. Would you kindly share the measured melting point for COC(=O)c1cc2c(Oc3ccc(Cl)cc3)cncc2s1 ?
Ans. 99 to 100 °C

Qu. Would you kindly share the measured melting point for COC(=O)c1cc(-c2ccc3occc3c2)n[nH]c1=O ?
Ans. 222 to 225 °C

Qu. Would you kindly share the measured melting point for CCOC(=O)c1cnc2cn[nH]c2c1Nc1ccsc1 ?
Ans. 174 to 175 °C

The reported measurements were obtained from a melting point compilation (Tetko et al.; mined from patent text by program, amines drawn as free bases though some values may be those of a salt).
